- assay method text: in vivo
- condition description: mouse, 20 mg/kg

| molecule smiles | Kp at 24 h |
| --- | --- |
| COC(C)(C)Cn1cnc2ccc(Sc3cnc(N4CCC5(CC4)Oc4ccccc4[C@H]5N)cn3)c(Cl)c2c1=O | > 0.25 |

* * *

- assay method text: Brain-plasma Pharmacokinetics
- condition description: male, CD-1 (ICR), mouse, brain/plasma, 20 mg/kg
# Kp at 24 h per record follows

| compound | Kp at 24 h |
| --- | --- |
| COC(C)(C)Cn1cnc2ccc(Sc3ncc(N4CCC5(CC4)Cc4ccccc4[C@H]5N)nc3N)c(Cl)c2c1=O | 0.05 to 0.1 |
| Cn1ccc2ccc(Sc3cnc(N4CCC5(CC4)Cc4ccccc4[C@H]5N)cn3)cc2c1=O | 0.1 to 0.25 |
| CC(C)(O)Cn1cnc2ccc(Sc3cnc(N4CCC5(CC4)Cc4ccccc4[C@H]5N)cn3)c(Cl)c2c1=O | 0.05 to 0.1 |
| COC(C)(C)Cn1cnc2ccc(Sc3cnc(N4CCC5(CC4)CO[C@@H](C)[C@H]5N)cn3)c(Cl)c2c1=O | > 0.25 |
| COC(C)(C)Cn1cnc2ccc(Sc3ncc(N4CCC5(CC4)CO[C@@H](C)[C@H]5N)nc3N)c(Cl)c2c1=O | 0.05 to 0.1 |
| COC(C)(C)Cn1cnc2ccc(Sc3cnc(N4CCC5(CC4)Cc4ccccc4[C@H]5N)cn3)c(Cl)c2c1=O | > 0.25 |
| COC(C)(C)Cn1cnc2ccc(Sc3cnc(N4CCC5(CC4)Cc4ncsc4[C@H]5N)cn3)c(Cl)c2c1=O | 0.1 to 0.25 |
| COC(C)Cn1ccc2ccc(Sc3ncc(N4CCC5(CC4)Cc4ccccc4[C@H]5N)nc3N)c(Cl)c2c1=O (stereo partly shown) | 0.1 to 0.25 |
| C[C@@H]1OCC2(CCN(c3cnc(Sc4ccc5ccn(C)c(=O)c5c4Cl)cn3)CC2)[C@@H]1N | 0.05 to 0.1 |
| COC(C)(C)Cn1cnc2ccc(Sc3cnc(N4CCC5(CC4)Cc4ccccc4[C@H]5N)cn3)cc2c1=O | > 0.25 |
| COC(C)(C)Cn1ccc2ccc(Sc3cnc(N4CCC5(CC4)Cc4ccccc4[C@H]5N)cn3)cc2c1=O | > 0.25 |
| COC(C)(C)Cn1ccc2ccc(Sc3cnc(N4CCC5(CC4)Cc4ccccc4[C@H]5N)cn3)c(Cl)c2c1=O | > 0.25 |
| COC(C)(C)Cn1cnc2ccc(Sc3nc(CO)c(N4CCC5(CC4)Cc4ccccc4[C@H]5N)nc3C)c(Cl)c2c1=O | 0.1 to 0.25 |
| N[C@@H]1c2ccccc2CC12CCN(c1cnc(Sc3ccc4ncn(-c5cccnc5)c(=O)c4c3Cl)cn1)CC2 | 0.1 to 0.25 |
| N[C@@H]1c2ccccc2OC12CCN(c1cnc(Sc3ccc4ncn(-c5ccccc5)c(=O)c4c3Cl)cn1)CC2 | > 0.25 |
| Cn1cnc2ccc(Sc3cnc(N4CCC5(CC4)Oc4ccccc4[C@H]5N)cn3)c(Cl)c2c1=O | > 0.25 |
